Provide the reported APOE RNA (% control) Cortex of each item.
System: human APOE RNA
Experiment: Activity in APOE C57BL/6NTac-Apoeem7250 knock-in mice, single ICV bolus, 4 weeks (Example 10)
Assay type: in vivo
Details: cortex; single ICV bolus 300 μg; 4 weeks post treatment; normalized to mouse Ppia
Strand notation (5' to 3'): a small letter for the sugar, then the base; units joined by * are phosphorothioate-linked, units joined directly phosphodiester-linked; [ ] holds rarer units or linkages, { } end groups; capitals alone tell only the bases. [ms] = mesyl phosphoramidate linkage; e = 2'-O-(2-methoxyethyl) (MOE); k = constrained ethyl (cEt); [5mC] = 5-methylcytosine; d = 2'-deoxy (DNA)

The cases that follow already have their APOE RNA (% control) Cortex on record.
1778127: modified oligonucleotide complementary to human APOE RNA (eA*e[5mC]eTeTkGkG*dT*dG[ms]dA[ms]dA*dT*d[5mC]*dT*dT*dT*dA[ms]kTeT[ms]eA[ms]eA; antisense) [compound 1778127] : 32 % control
1757575 (eA*e[5mC]eTeT*kG*kG*dT*dG[ms]dA[ms]dA[ms]dT*d[5mC]*dT*dT*dT*dA[ms]kT*eT*eA*eA; antisense) [Compound 1757575] : 38 % control

Note: attention shifts to another entry.
Data request: # return recorded APOE RNA (% control) Cortex for entry 1785598: modified oligonucleotide complementary to human APOE RNA (k[5mC]*kT*kT*dG[ms]dG[ms]dT[ms]dG[ms]dA[ms]dA[ms]dT*d[5mC]*dT*dT*dT*dA*dT[ms]kT*kA*dA[ms]kA; antisense) [compound 1785598]
Data returned: 29 % control

----------
Provide the reported APOE RNA (% control) Spinal Cord of each item.
System: human APOE RNA
Assay: Activity in APOE C57BL/6NTac-Apoeem7250 knock-in mice, single ICV bolus, 16 weeks (Example 12)
Format: in vivo
Conditions: spinal cord; single ICV bolus 300 μg; 16 weeks post treatment; normalized to mouse Ppia
Strand notation (5' to 3'): a small letter for the sugar, then the base; units joined by * are phosphorothioate-linked, units joined directly phosphodiester-linked; [ ] holds rarer units or linkages, { } end groups; capitals alone tell only the bases. [ms] = mesyl phosphoramidate linkage; e = 2'-O-(2-methoxyethyl) (MOE); k = constrained ethyl (cEt); [5mC] = 5-methylcytosine; d = 2'-deoxy (DNA)

1693138: 6-10-4 MOE gapmer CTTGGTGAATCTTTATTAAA, linkages sssssozzzsssszzsoss (e[5mC]*eT*eT*eG*eG*eTdG[ms]dA[ms]dA[ms]dT*d[5mC]*dT*dT*dT[ms]dA[ms]dT*eTeA*eA*eA) [compound 1693138] : 85 % control
1693141: 6-10-4 MOE gapmer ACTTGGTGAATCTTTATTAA, linkages ssssooszzzssssszsss (eA*e[5mC]*eT*eT*eGeGdT*dG[ms]dA[ms]dA[ms]dT*d[5mC]*dT*dT*dT*dA[ms]eT*eT*eA*eA) [compound 1693141] : 66 % control
1693101: 6-10-4 MOE gapmer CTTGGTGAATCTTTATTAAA, linkages sssssozzzssssszssss (e[5mC]*eT*eT*eG*eG*eTdG[ms]dA[ms]dA[ms]dT*d[5mC]*dT*dT*dT*dA[ms]dT*eT*eA*eA*eA) [compound 1693101] : 56 % control
1778120 (eA*e[5mC]eTeTeGeG*dT*dG[ms]dA[ms]dA*dT*d[5mC]*dT*dT*dT*dA[ms]kTeT*eA*eA; antisense) [Compound 1778120] : 46 % control
1693050: 5-10-5 MOE gapmer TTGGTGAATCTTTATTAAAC, linkages soosszzzsssssssosss (antisense eT*eTeGeG*eT*dG[ms]dA[ms]dA[ms]dT*d[5mC]*dT*dT*dT*dA*dT*eTeA*eA*eA*e[5mC]) [compound 1693050] : 63 % control
1681020: 5-10-5 MOE gapmer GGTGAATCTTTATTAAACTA, linkages zsssszsssszzszssssz (antisense eG[ms]eG*eT*eG*eA*dA[ms]dT*d[5mC]*dT*dT*dT[ms]dA[ms]dT*dT[ms]dA*eA*eA*e[5mC]*eT[ms]eA) [compound 1681020] : 59 % control

I'm hoping you can list APOE RNA (% control) Spinal Cord for every substance here, please.
1. 1693049: 5-10-5 MOE gapmer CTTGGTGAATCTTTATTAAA, linkages ssssszzzzssssszssss (antisense e[5mC]*eT*eT*eG*eG*dT[ms]dG[ms]dA[ms]dA[ms]dT*d[5mC]*dT*dT*dT*dA[ms]eT*eT*eA*eA*eA) [compound 1693049]
2. 1693140: 6-10-4 MOE gapmer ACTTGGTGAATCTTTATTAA, linkages sssssoszzzssssszoss (eA*e[5mC]*eT*eT*eG*eGdT*dG[ms]dA[ms]dA[ms]dT*d[5mC]*dT*dT*dT*dA[ms]eTeT*eA*eA) [compound 1693140]

Data returned:
1: 81 % control; 2: 68 % control

----------
Test system: human APOE RNA
Test: Dose-dependent inhibition of human APOE RNA in HepG2 cells, electroporation, 50,000 cells per well, RT-PCR normalized to GAPDH (Example 4, Tables 8-10)
Type: cell-based
Details: HepG2 cells, electroporation, 24-hour treatment, 5 nM, Table 8
Strand notation (5' to 3'): a small letter for the sugar, then the base; units joined by * are phosphorothioate-linked, units joined directly phosphodiester-linked; [ ] holds rarer units or linkages, { } end groups; capitals alone tell only the bases. [ms] = mesyl phosphoramidate linkage; e = 2'-O-(2-methoxyethyl) (MOE); k = constrained ethyl (cEt); [5mC] = 5-methylcytosine; d = 2'-deoxy (DNA)
ASSAY ENDPOINT: APOE RNA (% UTC) 5 nM
Kindly write the number and append the unit.

The cases that follow already have their APOE RNA (% UTC) 5 nM on record.
1778154: modified oligonucleotide complementary to human APOE RNA (e[5mC]*eT*eTeGeGeT*dG[ms]dA[ms]dA*dT*d[5mC]*dT*dT*dT*dA*dT*kTkAeA*eA; antisense) [compound 1778154] : 101 % UTC
1785604: modified oligonucleotide complementary to human APOE RNA (k[5mC]*dT[ms]dT[ms]kG*dG[ms]kT*dG[ms]dA[ms]dA*dT*d[5mC]*dT*dT*dT*dA*dT*kT*kA*dA[ms]kA; antisense) [compound 1785604] : 92 % UTC

I'm hoping you can list APOE RNA (% UTC) 5 nM for every substance here, please.
1. 1778125: modified oligonucleotide complementary to human APOE RNA (eA*e[5mC]eTeTeGeG*dT*dG[ms]dA[ms]dA*dT*d[5mC]*dT*dT*dT*dA[ms]kTkT*eA*eA; antisense) [compound 1778125]
2. 1778128: modified oligonucleotide complementary to human APOE RNA (eA*e[5mC]eTeTkGkG*dT*dG[ms]dA[ms]dA*dT*d[5mC]*dT*dT*dT*dA[ms]kTeT*eA*eA; antisense) [compound 1778128]

Data returned:
108 % UTC
81 % UTC

----------
Tested on: human APOE RNA
Experiment: Duration of action study in APOE C57BL/6NTac-Apoeem7250 knock-in mice (Example 18)
Assay type: in vivo
Conditions: spinal cord; 285 days post-dose; single ICV bolus 300 μg; APOE knock-in mice; normalized to mouse Ppia; relative to PBS
Marks after values point to notes of the source that are not given here. Strand notation (5' to 3'): a small letter for the sugar, then the base; units joined by * are phosphorothioate-linked, units joined directly phosphodiester-linked; [ ] holds rarer units or linkages, { } end groups; capitals alone tell only the bases. [ms] = mesyl phosphoramidate linkage; e = 2'-O-(2-methoxyethyl) (MOE); k = constrained ethyl (cEt); [5mC] = 5-methylcytosine; d = 2'-deoxy (DNA)
Provide the reported APOE RNA (% control) Spinal Cord of each item.

TezTeoGeoGksTdsGdzAdzAdzTds^mCdsTdsTdsTdsAdzTksTksAesAesAes^mCe (antisense eT[ms]eTeGkG*dT*dG[ms]dA[ms]dA[ms]dT*d[5mC]*dT*dT*dT*dA[ms]kT*kT*eA*eA*eA*e[5mC]) [Compound No. 1809814] : 84 % control
Aks^mCeoTeoTesGesGksTdsGdzAdzAdzTds^mCdsTdsTdsTdsAdzTksTksAesAe (kA*e[5mC]eTeT*eG*kG*dT*dG[ms]dA[ms]dA[ms]dT*d[5mC]*dT*dT*dT*dA[ms]kT*kT*eA*eA) [Compound No. 1809635] : 41 % control
^mCksTksTksGdzGdzTdzGdzAdzAdzTds^mCdsTdsTdsTdsAdsTdsTksAksAdzAk (antisense k[5mC]*kT*kT*dG[ms]dG[ms]dT[ms]dG[ms]dA[ms]dA[ms]dT*d[5mC]*dT*dT*dT*dA*dT*kT*kA*dA[ms]kA) [Compound No. 1785602] : 72† % control

Note: attention shifts to another entry.
Data request: Please report the measured APOE RNA (% control) Spinal Cord for Aes^mCeoTeoTesGesGksTdsGdzAdzAdzTds^mCdsTdsTdsTdsAdzTksTksAesAe (eA*e[5mC]eTeT*eG*kG*dT*dG[ms]dA[ms]dA[ms]dT*d[5mC]*dT*dT*dT*dA[ms]kT*kT*eA*eA) [Compound No. 1757576] tested on human APOE RNA.
Data returned: 86 % control
